Values were extracted from patent US9585885B2.

study_target: human dopamine D2 receptor (Homo sapiens)
Construct: expressed in transfected cells
test: Stimulating activities of human dopamine D2 receptor, [35S]GTPγS binding to hD2R#7 (HEK293) membrane homogenates
Format: biochemical
measurement_context: [35S]GTPγS binding, membrane homogenates, mean value (n=2); read-out: EC50
pEC50: −log10 of the molar value.
measurement_label: pEC50

INSERT INTO measurements (compound, assay_value) VALUES
  ('CCCN1C[C@@H](NC(=O)N(C)CCN(C)c2ccccc2)C[C@@H]2Cc3nc(N)ncc3C[C@H]21 (relative stereo)', 7.41),
  ('CCCN1C[C@@H](CO)C[C@@H]2Cc3nc(N)ncc3C[C@H]21 (relative stereo) [compound 1, reference compound]', 5.54),
  ('CCCN1C[C@@H](NC(=O)N(C)CCN(CC)CC)C[C@@H]2Cc3nc(N)ncc3C[C@H]21', 6.95),
  ('CCCN1C[C@@H](NC(=O)NC)C[C@@H]2Cc3nc(N)ncc3C[C@H]21 (relative stereo)', 6.79),
  ('CCCN(CCN(C)C)C(=O)N[C@H]1C[C@@H]2Cc3nc(N)ncc3C[C@H]2N(CCC)C1', 6.60),
  ('CCCN1C[C@@H](NC(=O)N(CC)CCN(C)CCOC)C[C@@H]2Cc3nc(N)ncc3C[C@H]21 (relative stereo)', 6.94),
  ('CCCN1C[C@@H](NC(=O)N(CC)CCN2CCCCC2)C[C@@H]2Cc3nc(N)ncc3C[C@H]21 (relative stereo)', 6.90),
  ('CCCN1C[C@@H](NC(=O)N2CCCCC2)C[C@@H]2Cc3nc(N)ncc3C[C@H]21 (relative stereo)', 7.20),
  ('CCCN1C[C@@H](NC(=O)N2CCc3ccccc3C2)C[C@@H]2Cc3nc(N)ncc3C[C@H]21 (relative stereo)', 8.00),
  ('CCCN1C[C@@H](NC(=O)N(CCc2ccccc2)CCN(C)C)C[C@@H]2Cc3nc(N)ncc3C[C@H]21 (relative stereo)', 6.65),
  ('CCCN1C[C@@H](NC(=O)N(CC)CCN(C)C)C[C@@H]2Cc3nc(N)ncc3C[C@H]21', 7.19),
  ('CCCN1C[C@@H](NC(=O)N(C)CCOC)C[C@@H]2Cc3nc(N)ncc3C[C@H]21 (relative stereo)', 7.37),
  ('CCCN1C[C@@H](NC(=O)N(C)C2CC2)C[C@@H]2Cc3nc(N)ncc3C[C@H]21 (relative stereo)', 7.03),
  ('CCCN1C[C@@H](NC(=O)N(C)CCc2ccccc2)C[C@@H]2Cc3nc(N)ncc3C[C@H]21 (relative stereo)', 7.72),
  ('CCCN1C[C@@H](NC(=O)N(CC)CCN2CCc3ccccc3C2)C[C@@H]2Cc3nc(N)ncc3C[C@H]21 (relative stereo)', 7.03),
  ('CCCN1C[C@@H](NC(=O)N(C)CCc2ccncc2)C[C@@H]2Cc3nc(N)ncc3C[C@H]21 (relative stereo)', 7.47);

----------
study_target: human dopamine D2 receptor (Homo sapiens, UniProt P14416)
Construct: expressed in transfected cells
Sequence (P14416 whole entry): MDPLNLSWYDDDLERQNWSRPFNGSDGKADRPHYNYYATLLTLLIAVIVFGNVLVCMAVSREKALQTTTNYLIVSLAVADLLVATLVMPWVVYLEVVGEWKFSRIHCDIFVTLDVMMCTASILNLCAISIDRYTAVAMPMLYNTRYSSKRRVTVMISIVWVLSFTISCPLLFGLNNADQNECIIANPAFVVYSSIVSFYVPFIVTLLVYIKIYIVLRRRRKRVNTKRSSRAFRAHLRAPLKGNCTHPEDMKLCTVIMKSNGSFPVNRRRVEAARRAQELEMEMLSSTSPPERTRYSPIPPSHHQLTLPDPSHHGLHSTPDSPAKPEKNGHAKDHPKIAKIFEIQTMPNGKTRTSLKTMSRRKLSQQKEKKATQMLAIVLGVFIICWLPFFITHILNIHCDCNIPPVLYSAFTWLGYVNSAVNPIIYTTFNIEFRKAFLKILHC
test: Stimulating activities of human dopamine D2 receptor, [35S]GTPγS binding to hD2R#7 (HEK293) membrane homogenates
Format: biochemical
pEC50: −log10 of the molar value.
measurement_label: pEC50

INSERT INTO measurements (smiles_str, assay_value) VALUES
  ('CCCN1C[C@@H](NC(=O)N(C)C)C[C@@H]2Cc3nc(N)ncc3C[C@H]21', 8.05);
